Attribute: TGI
system: UACC-62 melanoma; assay: NCI tumour cell line growth inhibition, 48 h

Answered examples (8):
# MOLECULE, TEST SYSTEM, QUANTITY, ENDPOINT RESULT
records = [
    ("O=C1c2c(n(Cc3ccccc3)c(=O)n2Cc2ccccc2)C(=O)N1Cc1ccccc1", "UACC-62 melanoma", "TGI", "> 100 µM"),
    ("Cc1ccc2c(c1)NC(=O)CC(c1ccccc1)=N2", "UACC-62 melanoma", "TGI", "> 100 µM"),
    ("CC(C)NC(=O)OCc1c(COC(=O)NC(C)C)c(-c2ccc(Cl)cc2)n2c1CCC2", "UACC-62 melanoma", "TGI", "7.56 µM"),
    ("N#CC1=C(N)NC(=O)NC12Nc1ccccc1S2 (stereo not given)", "UACC-62 melanoma", "TGI", "36.4 µM"),
    ("NC(=S)Nc1[nH]c(=S)nc2c1SC1=N/C(=C\\c3ccco3)C(=O)N12", "UACC-62 melanoma", "TGI", "> 100 µM"),
    ("C=C(CC[C@@H](C(=O)O)[C@H]1[C@H](O)C[C@@]2(C)C3=CC[C@@H](C(=C)C)[C@](C)(CCC(=O)O)C3=CC[C@]12C)C(C)C", "UACC-62 melanoma", "TGI", "29.1 µM"),
    ("O=C1NC2(CCCCC2)C2CCCCCC12 (stereo not given)", "UACC-62 melanoma", "TGI", "> 100 µM"),
    ("Nc1c(C(=O)Nc2ccccc2)[n+]([O-])c2ccccc2[n+]1[O-]", "UACC-62 melanoma", "TGI", "22.6 µM"),
]

Reported TGI, molecule CCCNC(C#N)c1ccc(C(C#N)NCCC)cc1 (stereo not given) : ____
> 100 µM

Reported TGI, molecule `CCN(c1ccc(Br)cc1)c1c(Br)c(=O)nc2ccccn12` : ____
> 100 µM

Reported TGI, molecule `COc1ccc(/C=C/C(=O)Oc2cc(O)cc(O)c2)cc1` : ____
> 100 µM

Reported TGI, molecule `[N-]=[N+]=CC(=O)OCC1SCCCS1` : ____
> 100 µM

Reported TGI, molecule CO[C@@H]1/C=C(C)/C=C/[C@@H](C)/C=C(\C)C(=O)OC(/C(C)=C/C=C(\C)CNC(=O)[C@H](CO)NC=O)[C@@H](C)/C=C/C=C/[C@H](OC)CC/C=C(C)/C=C/C1 (stereo not given in full) : ____
< 0.005 µM
